tested on: rhinovirus A2; test: Inhibition of Human rhinovirus 2 purified 3C protease at 100 uM preincubated for 30 mins measured after 1 hrs by FRET assay
This listing pairs compounds with measured inhibition.
Respond numerically; units are % and should not be typed.

# example entries with known answers
CCOC(=O)CCc1ccc2[nH]c(-c3cccnc3)cc(=O)c2c1    0
O=c1cc(-c2cccnc2)[nH]c2cc(Cc3ccccc3)ccc12    100
O=C(O)/C=C/c1ccc2[nH]c(-c3cccnc3)cc(=O)c2c1    70
Cc1ccc2c(=O)cc(-c3cccnc3)[nH]c2c1    40

Now consider a different compound.
# input Fill in: inhibition of O=c1cc(-c2cccnc2)[nH]c2cc(C(O)c3ccccc3)ccc12 (racemic) is ___
# output 80

---

experiment: Inhibition of Human rhinovirus 2 purified 3C protease preincubated for 30 mins measured after 1 hrs by FRET assay; set-up: species or system rhinovirus A2
Assign true (1) whenever pIC50 does not fall below 5; assign false (0) whenever it does.

O=c1cc(-c2cccnc2)[nH]c2cc(C(O)c3ccccc3)ccc12 (racemic)    false (0)
O=C(O)/C=C/c1ccc2[nH]c(-c3cccnc3)cc(=O)c2c1    false (0)
CCOC(=O)/C=C/c1ccc2[nH]c(-c3cccnc3)cc(=O)c2c1    true (1)

# input Does O=Cc1ccc2[nH]c(-c3cccnc3)cc(=O)c2c1 have a reported pIC50 of at least 5?
# output true (1)

# input Would you say N#Cc1ccc2[nH]c(-c3cccnc3)cc(=O)c2c1 shows pIC50 at minimum 5?
# output false (0)

---

experiment: Solubility of the compound; format: physicochemical
quantityMeasured: solubility

# example entries with known answers
Oc1cc(-c2ccccc2)nc2ccccc12    100 µM
O=c1cc(-c2cccnc2)[nH]c2cc(Cc3ccccc3)ccc12    1 µM
Cc1cc2[nH]c(-c3ccccc3)cc(=O)n2n1    > 900 µM

Now for a further molecule.
# input Need solubility of O=c1cc(-c2cccnc2)[nH]c2ccccc12 , thanks.
# output > 1300 µM

---

inhibition: recorded values
tested on: rhinovirus A2; experiment: Inhibition of Human rhinovirus 2 purified 3C protease at 100 uM preincubated for 30 mins measured after 1 hrs by FRET assay
Give the value, in units of %, as a plain number.

// solved cases for inhibition follow
CNC(=O)Cc1ccc2c(=O)cc(-c3cccnc3)[nH]c2c1    45
CC(=O)c1ccc2[nH]c(-c3cccnc3)cc(=O)c2c1    25
Cc1cc2[nH]c(-c3ccccc3)cc(=O)n2n1    43
N#Cc1ccc2[nH]c(-c3cccnc3)cc(=O)c2c1    50
CNC(=O)c1ccc2c(=O)cc(-c3cccnc3)[nH]c2c1    40

# input Reported inhibition for rhinovirus A2, given O=c1cc(-c2cccnc2)[nH]c2ccccc12 ?
# output 35
